Where do these numbers come from? They come from ChEMBL document CHEMBL1961873.

Target: Casein kinase I isoform alpha (Homo sapiens);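 note: values are the mean percent inhibition of CK1a, averaged over measurements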
Conditions: at 0.1 µM
measured_metric: inhibition (%)
Report only the number, with the unit % understood.

Example cases with answers are listed next.
| molecule | system | inhibition, % |
| --- | --- | --- |
| COc1cc2ncn(-c3cc(OCc4ccccc4C(F)(F)F)c(C(C)=O)s3)c2cc1OC | Casein kinase I isoform alpha (Homo sapiens) | 3.35 |
| O=C(NCC1CC1)c1ccc(-c2cccc(C(=O)NC3CC3)c2)cc1 | Casein kinase I isoform alpha (Homo sapiens) | 2.21 |
| N#Cc1ccc(Oc2nccc(-c3c(-c4ccc(F)cc4)ncn3C3CCNCC3)n2)cc1 | Casein kinase I isoform alpha (Homo sapiens) | 4.15 |
| NS(=O)(=O)c1ccc(N/N=C2\C(=O)Nc3ccc(C(=O)NCCCn4ccnc4)cc32)cc1 | Casein kinase I isoform alpha (Homo sapiens) | 3.95 |
| COc1ccc2cc(-c3c(-c4ccncc4)nc(-c4ccc([S+](C)[O-])cc4C)n3C)ccc2c1 (stereo unspecified) | Casein kinase I isoform alpha (Homo sapiens) | 0.77 |
| CCN(CC)Cc1ccc(Nc2nccc(-c3cnn4ncccc34)n2)cc1 | Casein kinase I isoform alpha (Homo sapiens) | 15.2 |

IN: Could you tell me which inhibition is on file for "NC(=O)Cc1ccccc1Oc1nccc(-c2c(-c3ccc(F)cc3)ncn2C2CCNCC2)n1" ?
OUT: 9.09

IN: Could you tell me which inhibition is on file for "COc1cc(Nc2ncc3c(C)nc(-c4cccc(Oc5ccccc5)c4)n3n2)cc(OC)c1OC" ?
OUT: 6.15

IN: Could you tell me which inhibition is on file for "CCS(=O)(=O)c1ccc(OC)c(Nc2ncc(-c3ccccc3Cl)o2)c1" ?
OUT: 0.11

IN: Could you tell me which inhibition is on file for Nc1nccc(-c2c(-c3ccc(F)cc3)ncn2C2CCC(O)CC2)n1 (stereo unspecified) ?
OUT: 62.4

IN: Could you tell me which inhibition is on file for "Fc1ccc(-c2ncn(C3CCNCC3)c2-c2ccnc(Oc3ccc(F)c(F)c3)n2)cc1" ?
OUT: 4.09
